System: CRE E. coli
Test: Growth of clinical strain CRE E. coli
Assay type: cell-based, Escherichia coli
Details: 10 μM
Experimental: MG1655 E. coli cultures were started from individual colonies from 2% LB and 1.5% agar into M9 media. They were diluted 1:10,000 from overnight culture into fresh M9 with respective treatment and grown at 37° C. with 225 rpm shaking. Clinical strains were started from individual colonies grown on cation adjusted Mueller Hinton Broth with 1.5% agar into liquid CAMHB. […] Lag time was calculated using Growth Rates Made Easy (Hall et al. Mol. Biol. Evol. 31(1):232-238). […]
MEASUREMENT KIND: growth inhibition of CRE E. coli

KFFKFFKFFK-O-ttcgacatcaac (antisense TTCGACATCAAC; PNA, (KFF)3K peptide via O-linker, chemistry not fully specified) [α-gyrB, 12-mer antisense PNA centered on start codon of gyrB, O-linker to (KFF)3K]	inhibited
KFFKFFKFFK -O-tcaaacattgtc (antisense TCAAACATTGTC; all peptide nucleic acid (PNA); (KFF)3K cell-penetrating peptide joined to the N-terminus through an O-linker) [α-ffh, 12-mer antisense PNA centered on start codon of ffh, O-linker to (KFF)3K]	inhibited
